# tested target: IRAK4 (Homo sapiens)
# Construct: endogenous in cells; host or cells: THP-1 cells
# Sequence (Q9NWZ3 whole entry): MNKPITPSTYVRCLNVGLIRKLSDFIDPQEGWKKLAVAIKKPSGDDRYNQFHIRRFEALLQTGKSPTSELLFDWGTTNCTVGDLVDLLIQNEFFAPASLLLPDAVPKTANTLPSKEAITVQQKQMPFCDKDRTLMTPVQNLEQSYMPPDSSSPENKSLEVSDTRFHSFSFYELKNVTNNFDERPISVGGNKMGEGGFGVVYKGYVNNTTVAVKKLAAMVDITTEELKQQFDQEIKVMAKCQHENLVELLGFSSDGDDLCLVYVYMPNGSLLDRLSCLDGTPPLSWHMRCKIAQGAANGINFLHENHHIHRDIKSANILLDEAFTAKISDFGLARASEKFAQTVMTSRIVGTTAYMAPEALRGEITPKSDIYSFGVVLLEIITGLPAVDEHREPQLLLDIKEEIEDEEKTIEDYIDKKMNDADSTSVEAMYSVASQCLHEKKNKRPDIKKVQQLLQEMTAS
# run description: LVL THP1 HTRF (THP1 Homogeneous Time Resolved Fluorescence)
# Format: cell-based
# test context: THP1 cells, 18 h incubation with compound, read-out: LVL THP1 HTRF EC50
parameter measured: DC50 (nM)
Report the value in nM with no unit label.

Observe how each entry below is paired with its result.
• C[C@H](C#N)Nc1cc(-n2ncc3cc(C#N)cnc32)ncc1-n1cc(C2CCC(CCN3CCN(c4ccc(C5CCC(=O)NC5=O)cc4)[C@@H](C)C3)CC2)nn1 (stereo in doubt) [P-156] = 8
• C[C@H](C#N)Nc1cc(-n2ncc3cc(C#N)cnc32)ncc1-n1cc([C@H]2CC[C@H](CCN3CCN(c4ccc(N5CCC(=O)NC5=O)c(F)c4)CC3)CC2)nn1 [P-365] = 2.3

Q: For the compound shown here, C[C@H](C#N)Nc1cc(-n2ncc3cc(C#N)cnc32)ncc1-n1cc([C@H]2CC[C@H](CCN3CC[C@H]4[C@@H]3CCN4c3ccc([C@@]4(C)CCC(=O)NC4=O)cn3)CC2)nn1 (single isomer, unassigned) [P-435] , give the reported DC50.
Ans: 123
